So I've got a bunch of molecules here, and I need their IC50 values.
experimental_system: Tyrosine-protein kinase JAK2 (Homo sapiens, UniProt O60674)
Sequence (O60674 whole entry): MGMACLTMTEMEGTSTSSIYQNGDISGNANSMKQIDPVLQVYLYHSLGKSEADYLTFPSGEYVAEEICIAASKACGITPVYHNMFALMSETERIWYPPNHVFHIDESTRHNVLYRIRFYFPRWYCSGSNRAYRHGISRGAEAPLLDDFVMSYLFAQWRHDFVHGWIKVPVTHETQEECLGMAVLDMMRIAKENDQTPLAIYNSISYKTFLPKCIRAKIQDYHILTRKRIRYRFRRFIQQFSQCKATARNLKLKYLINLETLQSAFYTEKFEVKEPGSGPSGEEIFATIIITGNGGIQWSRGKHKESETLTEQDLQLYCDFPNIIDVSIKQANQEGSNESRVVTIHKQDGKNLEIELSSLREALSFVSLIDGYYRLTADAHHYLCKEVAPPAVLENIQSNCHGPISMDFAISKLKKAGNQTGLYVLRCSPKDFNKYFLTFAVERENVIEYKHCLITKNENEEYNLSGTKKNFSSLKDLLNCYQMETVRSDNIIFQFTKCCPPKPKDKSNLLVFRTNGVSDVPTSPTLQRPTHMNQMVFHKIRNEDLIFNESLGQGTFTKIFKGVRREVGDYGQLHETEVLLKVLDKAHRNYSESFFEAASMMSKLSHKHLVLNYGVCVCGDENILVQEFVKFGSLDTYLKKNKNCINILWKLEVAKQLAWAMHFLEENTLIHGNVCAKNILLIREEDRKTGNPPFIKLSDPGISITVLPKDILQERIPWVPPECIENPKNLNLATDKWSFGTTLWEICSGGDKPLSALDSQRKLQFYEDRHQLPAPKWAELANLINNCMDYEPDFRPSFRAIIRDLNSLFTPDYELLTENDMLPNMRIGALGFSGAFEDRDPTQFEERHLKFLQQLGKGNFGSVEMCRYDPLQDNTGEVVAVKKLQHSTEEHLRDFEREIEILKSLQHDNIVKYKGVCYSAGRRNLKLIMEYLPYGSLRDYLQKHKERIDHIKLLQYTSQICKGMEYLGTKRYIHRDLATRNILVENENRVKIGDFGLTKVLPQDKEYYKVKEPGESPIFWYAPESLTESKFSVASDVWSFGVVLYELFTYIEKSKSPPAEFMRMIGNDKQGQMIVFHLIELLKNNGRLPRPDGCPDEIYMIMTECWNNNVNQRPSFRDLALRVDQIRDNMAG
protocol_summary: Inhibition of recombinant JAK2 using poly(Glu,Ala,Tyr) as substrate after 2 hrs by luminescence assay

QUERY: What does the data say about its IC50? Entry: CN1C/C=C/CCOc2cccc(c2)-c2cc(N3CCCC3)nc(n2)Nc2cccc(c2)C1
RESULT: > 10 µM

QUERY: What does the data say about its IC50? Entry: CN1C/C=C/CNC(=O)c2cccc(c2)-c2ccnc(n2)Nc2cccc(c2)C1
RESULT: > 10 µM

QUERY: What does the data say about its IC50? Entry: CN1C/C=C/CC(=O)Nc2cccc(c2)-c2ccnc(n2)Nc2cccc(c2)C1
RESULT: > 10 µM

Just for reference, ChEMBL document CHEMBL1944548 is where these values come from.
